Molecular target: native mouse MET on living mouse cells (mouse, UniProt P16056 25-1379)
Experiment: cell-based or functional assay
RESULT TYPE: protection from staurosporine, viability EMAX, MLP29 (%)

- BINDER: "chimeric llama-human IgG1 mAb 71A3 (antibody, V domains shown) VH: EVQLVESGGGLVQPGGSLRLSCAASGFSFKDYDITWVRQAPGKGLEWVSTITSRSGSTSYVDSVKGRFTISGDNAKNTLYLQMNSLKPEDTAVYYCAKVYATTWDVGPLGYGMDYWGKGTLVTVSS VL: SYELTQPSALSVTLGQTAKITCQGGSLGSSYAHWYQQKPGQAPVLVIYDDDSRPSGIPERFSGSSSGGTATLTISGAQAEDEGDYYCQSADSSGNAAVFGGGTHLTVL"
  QUANTITATIVE READOUT: 70.5
- BINDER: "chimeric llama-human IgG1 mAb 74C8 (antibody, V domains shown) VH: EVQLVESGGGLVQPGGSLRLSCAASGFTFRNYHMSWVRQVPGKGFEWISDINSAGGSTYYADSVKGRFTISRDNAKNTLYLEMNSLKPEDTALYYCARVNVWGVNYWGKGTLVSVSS VL: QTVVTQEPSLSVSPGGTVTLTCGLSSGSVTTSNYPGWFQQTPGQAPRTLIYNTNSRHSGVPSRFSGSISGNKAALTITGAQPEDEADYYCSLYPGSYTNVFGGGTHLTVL"
  QUANTITATIVE READOUT: 37.5
- BINDER: "chimeric llama-human IgG1 mAb 71D6 (antibody, V domains shown) VH: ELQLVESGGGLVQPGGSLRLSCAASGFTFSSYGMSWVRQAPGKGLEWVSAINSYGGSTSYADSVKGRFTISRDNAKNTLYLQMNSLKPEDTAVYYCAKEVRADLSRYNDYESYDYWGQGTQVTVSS VL: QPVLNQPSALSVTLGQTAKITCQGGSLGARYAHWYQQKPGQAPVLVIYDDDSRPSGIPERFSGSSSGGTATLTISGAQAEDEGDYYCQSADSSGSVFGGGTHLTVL"
  QUANTITATIVE READOUT: 68.3

Source of measurements: patent US20210024639A1
